# Test system: K562
# EXPERIMENTAL_PROTOCOL: NCI tumour cell line growth inhibition, 48 h
Activity calls are given as the source filed them. No stated cut-off is given here; in the data, active = GI50 up to about 1.1 µM and inactive = higher.
Classes used: 1 = active, -1 = inactive

{"MOLECULE": "COc1ccc(Br)c(CN2CCc3ccccc32)c1OS(=O)(=O)c1ccc(C)cc1", "CLASS_NAME": -1}
{"MOLECULE": "O=C(O)c1ccccc1CC1Cc2ccc3c(c2C1=O)CCC3 (stereo not given)", "CLASS_NAME": -1}
{"MOLECULE": "O=C1NC2CCCCCC2C12CCCCC2 (stereo not given)", "CLASS_NAME": -1}
{"MOLECULE": "COc1cccc(C(=O)C#Cc2cnc(OC)nc2OC)c1", "CLASS_NAME": 1}
{"MOLECULE": "N/N=C1/C(=O)N(c2ccc(Cl)cc2)C(=O)C(=O)C1c1nc2ccccc2s1 (stereo not given)", "CLASS_NAME": -1}
{"MOLECULE": "CN/N=C(/CC(=O)c1sc(-n2nc(-c3ccccc3)cc2-c2ccccc2)nc1C)C(=O)Nc1ccc(Cl)c(Cl)c1", "CLASS_NAME": -1}
{"MOLECULE": "Cc1c(C(=O)/C=C/c2ccccc2Cl)[n+]([O-])c2ccccc2[n+]1[O-]", "CLASS_NAME": -1}
{"MOLECULE": "C=CCN1C(N)=C(C#N)C(C#N)(C#N)C1CCC (stereo not given)", "CLASS_NAME": -1}
{"MOLECULE": "C=CCN(C(=O)OC(C)(C)C)C1=CC2C(C)=CN(S(=O)(=O)c3ccccc3)C2C(OCc2ccccc2)=C1 (stereo not given)", "CLASS_NAME": -1}
{"MOLECULE": "CCOC(=O)C(=[N+]=[N-])C(=O)C[N+]12CCN(CC1)CC2", "CLASS_NAME": -1}
